Every entry's value here was drawn from ChEMBL document CHEMBL3988442.

# TESTED ON: Chromo domain-containing protein 1 (Saccharomyces cerevisiae (strain ATCC 204508 / S288c) (Baker's yeast)) (UniProt P32657)
# Sequence (P32657 whole entry, the tested form may be a part): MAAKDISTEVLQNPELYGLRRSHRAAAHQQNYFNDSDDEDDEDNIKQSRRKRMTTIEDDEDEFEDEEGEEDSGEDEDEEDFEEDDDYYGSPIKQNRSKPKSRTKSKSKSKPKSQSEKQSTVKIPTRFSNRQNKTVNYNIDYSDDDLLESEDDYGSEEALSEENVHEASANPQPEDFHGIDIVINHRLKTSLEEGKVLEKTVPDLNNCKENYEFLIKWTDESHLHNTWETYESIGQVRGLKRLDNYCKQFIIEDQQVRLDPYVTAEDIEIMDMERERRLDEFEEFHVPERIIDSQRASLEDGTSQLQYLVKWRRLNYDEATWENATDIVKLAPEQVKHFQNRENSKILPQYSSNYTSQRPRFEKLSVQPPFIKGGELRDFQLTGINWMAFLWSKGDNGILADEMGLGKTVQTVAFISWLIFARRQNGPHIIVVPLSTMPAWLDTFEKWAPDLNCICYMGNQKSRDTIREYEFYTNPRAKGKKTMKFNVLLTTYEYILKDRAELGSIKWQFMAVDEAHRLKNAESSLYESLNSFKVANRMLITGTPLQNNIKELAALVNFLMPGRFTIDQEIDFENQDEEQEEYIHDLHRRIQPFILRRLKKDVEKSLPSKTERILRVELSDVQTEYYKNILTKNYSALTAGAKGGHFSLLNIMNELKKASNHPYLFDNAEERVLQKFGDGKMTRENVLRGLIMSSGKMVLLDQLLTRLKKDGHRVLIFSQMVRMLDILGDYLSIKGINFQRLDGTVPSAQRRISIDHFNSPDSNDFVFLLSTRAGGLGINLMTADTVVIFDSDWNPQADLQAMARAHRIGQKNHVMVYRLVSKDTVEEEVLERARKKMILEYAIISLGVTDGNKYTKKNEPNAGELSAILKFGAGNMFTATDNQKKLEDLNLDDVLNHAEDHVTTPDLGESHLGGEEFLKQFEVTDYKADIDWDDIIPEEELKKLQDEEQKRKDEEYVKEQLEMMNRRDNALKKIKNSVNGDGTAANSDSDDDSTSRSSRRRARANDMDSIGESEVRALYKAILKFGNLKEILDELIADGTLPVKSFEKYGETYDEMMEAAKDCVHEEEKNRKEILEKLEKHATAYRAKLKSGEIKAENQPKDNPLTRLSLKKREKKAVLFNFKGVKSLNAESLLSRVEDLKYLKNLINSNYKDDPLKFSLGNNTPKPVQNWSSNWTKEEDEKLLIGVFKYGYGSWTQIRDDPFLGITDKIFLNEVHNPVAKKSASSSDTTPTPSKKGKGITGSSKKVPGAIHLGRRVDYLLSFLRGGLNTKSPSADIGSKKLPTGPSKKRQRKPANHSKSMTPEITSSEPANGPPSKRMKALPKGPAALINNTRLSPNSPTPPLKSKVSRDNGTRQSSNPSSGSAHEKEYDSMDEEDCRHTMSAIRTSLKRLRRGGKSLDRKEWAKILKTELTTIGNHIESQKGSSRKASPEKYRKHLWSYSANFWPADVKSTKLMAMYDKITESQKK
# PROTOCOL TEXT: ScCHD-1 Enzyme Inhibition Assay; also: in the data most compounds retested in dose-response had high values
# Format: functional
# Set-up: scale not given: direction of the effect not stated beside the values
# STATED CONDITIONS: 30 µM
RECORDED METRIC: Percent Effect
Units required after the number.

Task: What value of Percent Effect has been reported for the following compound? CCc1nc(C2CCCN(C(=O)c3cnn(CC)c3)C2)no1 (stereo unspecified)
Output: -2.87%

Task: Form field: reported Percent Effect of `Cc1nn(C)c(N(C)C)c1CNCc1cccc(CN(C)C(C)C)c1`
Output: -8.38%

Task: Record request: Percent Effect value, item CCOCCN1CCN(Cc2nnc(C3CC3)o2)CC1CC (stereo unspecified)
Output: -5.28%

Task: What value of Percent Effect has been recorded for this entry: `CC(=O)NCCNC(=O)c1cnc(-c2ccccc2)nc1`
Output: -5.21%

Task: Form field: reported Percent Effect of COc1ccc(C2Nc3ccccc3C3=NCCCN32)cc1OC (stereo unspecified)
Output: -8.33%

Task: Param item = CN(C)C(=O)CC1CC2(CCN(CC3CC3)CC2)c2cc(F)ccc21 (stereo unspecified) ; retrieve measured Percent Effect.
Output: 5.46%

---

# TESTED ON: Sialic acid-binding Ig-like lectin 9 (Homo sapiens) (UniProt Q9Y336)
# Sequence (Q9Y336 whole entry): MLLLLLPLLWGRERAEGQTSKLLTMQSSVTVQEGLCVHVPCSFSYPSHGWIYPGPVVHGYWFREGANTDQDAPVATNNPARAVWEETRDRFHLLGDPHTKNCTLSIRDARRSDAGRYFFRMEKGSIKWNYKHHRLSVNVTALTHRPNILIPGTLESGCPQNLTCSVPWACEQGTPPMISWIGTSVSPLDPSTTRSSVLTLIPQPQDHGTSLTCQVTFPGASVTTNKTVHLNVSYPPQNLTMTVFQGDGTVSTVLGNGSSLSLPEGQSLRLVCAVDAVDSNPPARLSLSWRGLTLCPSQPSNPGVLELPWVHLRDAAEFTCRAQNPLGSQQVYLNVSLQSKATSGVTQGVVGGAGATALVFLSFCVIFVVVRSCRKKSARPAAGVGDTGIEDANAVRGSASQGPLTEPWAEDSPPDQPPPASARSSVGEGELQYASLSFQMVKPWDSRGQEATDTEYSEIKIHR
# PROTOCOL TEXT: Hs-Siglec9 ALPHAscreen SOP 20170721
# Set-up: scale not given: direction of the effect not stated beside the values
# STATED CONDITIONS: 10 µM
RECORDED METRIC: Percent Effect (%)
Your answer should be a plain number; it is taken to be in %.

Task: Percent Effect of CCOc1nnc(CN2CCOC(CNc3cccnn3)C2)s1 (stereo not given) on Sialic acid-binding Ig-like lectin 9 (Homo sapiens) (UniProt Q9Y336)?
Output: -0.385

Task: Give Percent Effect (Sialic acid-binding Ig-like lectin 9 (Homo sapiens) (UniProt Q9Y336)) of the following compound: `O=C(NCC(=O)N1CCCCC1)c1ccc(Cl)cc1I`
Output: 3.75

Task: Give Percent Effect (Sialic acid-binding Ig-like lectin 9 (Homo sapiens) (UniProt Q9Y336)) of the following compound: CC(Cc1ccco1)NC(=O)Nc1cnn(CC(N)=O)c1 (stereo not given)
Output: 0.769

Task: GET /values?readout=Percent Effect&system=Sialic acid-binding Ig-like lectin 9 (Homo sapiens) (UniProt Q9Y336)&item= `Cc1ccc(C(=O)Nc2cc(C(C)C)n[nH]2)cn1`
Output: 4.24

Task: GET /values?readout=Percent Effect&system=Sialic acid-binding Ig-like lectin 9 (Homo sapiens) (UniProt Q9Y336)&item= `CO[C@@H]1CC[C@H]2[C@H]1OCCN2C(=O)c1ccc(C)o1`
Output: -12.1

Task: So what Percent Effect did `COCCNC(=O)C[C@@H]1COC[C@H]2CN(C(=O)c3cnccn3)C[C@@H]12` get with Sialic acid-binding Ig-like lectin 9 (Homo sapiens) (UniProt Q9Y336)?
Output: 7.09

Task: # get_value(readout= Percent Effect, system= Sialic acid-binding Ig-like lectin 9 (Homo sapiens) (UniProt Q9Y336)) for `Cc1cc(N(C)Cc2cc(C)on2)n2nc(C)c(C)c2n1`
Output: -6.39

Task: Item: O=C(CCc1cccs1)N1CCCCC1Cn1cccn1 (stereo not given) Test system: Sialic acid-binding Ig-like lectin 9 (Homo sapiens) (UniProt Q9Y336) Read-out: Percent Effect Value: ?
Output: -15.4

Task: Requested read-out Percent Effect, target or system Sialic acid-binding Ig-like lectin 9 (Homo sapiens) (UniProt Q9Y336), entry Cc1cc(C2CCCN(C(=O)CN3CCN(C)CC3)C2)n[nH]1 (stereo not given)
Output: 2.41

Task: Query the reported Percent Effect for Sialic acid-binding Ig-like lectin 9 (Homo sapiens) (UniProt Q9Y336); item: `Cc1cc(C(=O)NCc2ccnc(N(C)C)c2)c(C)o1`
Output: -6.37

Task: # returns recorded Percent Effect (system: Sialic acid-binding Ig-like lectin 9 (Homo sapiens) (UniProt Q9Y336)) for Cc1nn2c(N3CCC(O)C3)cc(-c3ccccc3)nc2c1C (stereo not given)
Output: 7.31

Task: Item Cc1csc(CNC(=O)NCC(O)c2cccc(Cl)c2)n1 (stereo not given) with Sialic acid-binding Ig-like lectin 9 (Homo sapiens) (UniProt Q9Y336) - Percent Effect?
Output: 1.18

Task: Give Sialic acid-binding Ig-like lectin 9 (Homo sapiens) (UniProt Q9Y336) Percent Effect for `CCCn1c(C)c(CC(=O)NC)c2c1CC(C)(C)CC2=O`
Output: 0.225

Task: Missing value: Percent Effect, Sialic acid-binding Ig-like lectin 9 (Homo sapiens) (UniProt Q9Y336), entry O=C(CN1CCC(c2cccc(F)c2)C1)NCC(F)(F)F (stereo not given) . Fill in?
Output: -3.51

Task: Give Percent Effect (Sialic acid-binding Ig-like lectin 9 (Homo sapiens) (UniProt Q9Y336)) of the following compound: `c1cncc(COCc2nnc3n2CCN(Cc2ccoc2)C3)c1`
Output: 9.78

Task: # returns recorded Percent Effect (system: Sialic acid-binding Ig-like lectin 9 (Homo sapiens) (UniProt Q9Y336)) for `Cc1ccccc1-c1cc(C(=O)N2CCn3c(C)nnc3C2)[nH]n1`
Output: 3.48

Task: I'm curious: which Percent Effect was measured for `Cc1ncsc1C(=O)NC1CCN(Cc2cccnc2)CC1` tested on Sialic acid-binding Ig-like lectin 9 (Homo sapiens) (UniProt Q9Y336)?
Output: 18.2

Task: Quick check: Percent Effect on Sialic acid-binding Ig-like lectin 9 (Homo sapiens) (UniProt Q9Y336), item CC(=O)N1CCCCC1c1nc2c(c(N3CCCCC3)n1)CN(C)CC2 (stereo not given) ?
Output: 0.77

Task: // lookup Percent Effect | system=Sialic acid-binding Ig-like lectin 9 (Homo sapiens) (UniProt Q9Y336) | key= `Cc1cc(CN2CCc3nn(C(C)C)c(=O)cc3C2)no1`
Output: 2.16

Task: Item: CN(C)C(=O)NC1COC2(CCN(Cc3ccccc3)CC2)C1 (stereo not given) Test system: Sialic acid-binding Ig-like lectin 9 (Homo sapiens) (UniProt Q9Y336) Read-out: Percent Effect Value: ?
Output: -1.66

Task: Give Sialic acid-binding Ig-like lectin 9 (Homo sapiens) (UniProt Q9Y336) Percent Effect for `O=C(NCC1CC1)c1nc(COc2ccc3c(c2)OCO3)no1`
Output: -3.59

Task: Record `Cc1cc(CN(C)C(=O)c2cc3c([nH]c2=O)CCCC3=O)no1` : what is its Percent Effect with Sialic acid-binding Ig-like lectin 9 (Homo sapiens) (UniProt Q9Y336)?
Output: -1.13

Task: Look up Percent Effect with Sialic acid-binding Ig-like lectin 9 (Homo sapiens) (UniProt Q9Y336) for this compound: Cc1cc(C2CCCN(CCCNS(C)(=O)=O)C2)n[nH]1 (stereo not given)
Output: 13.7

Task: Can you look up Percent Effect on Sialic acid-binding Ig-like lectin 9 (Homo sapiens) (UniProt Q9Y336) for Fc1cnc(N2CCCC3(CN(Cc4ccncc4)CCO3)C2)nc1 (stereo not given) ?
Output: -0.573

Task: # get_value(readout= Percent Effect, system= Sialic acid-binding Ig-like lectin 9 (Homo sapiens) (UniProt Q9Y336)) for `Cc1cc(C)n(CCC(=O)N2CCC(c3nc(C(C)C)no3)CC2)n1`
Output: 11.6

---

# TESTED ON: Arginase-2, mitochondrial (Homo sapiens)
# Sequence (whole entry): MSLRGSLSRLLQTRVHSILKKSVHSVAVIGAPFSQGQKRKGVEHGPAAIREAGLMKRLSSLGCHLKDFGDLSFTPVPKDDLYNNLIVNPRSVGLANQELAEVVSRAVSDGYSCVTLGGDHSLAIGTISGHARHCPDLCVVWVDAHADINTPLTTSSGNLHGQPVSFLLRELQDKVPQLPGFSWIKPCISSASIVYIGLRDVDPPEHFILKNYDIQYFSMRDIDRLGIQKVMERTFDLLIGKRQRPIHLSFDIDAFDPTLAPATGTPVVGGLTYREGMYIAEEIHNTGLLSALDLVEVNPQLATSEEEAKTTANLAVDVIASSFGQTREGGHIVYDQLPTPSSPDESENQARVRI
# PROTOCOL TEXT: in vitro enzyme assay to detect the production of urea directly proportional to the activity of Arginase II; also: in the data most compounds retested in dose-response had high values
# Type: functional
# Set-up: scale not given: direction of the effect not stated beside the values
# STATED CONDITIONS: 33.3 µM
RECORDED METRIC: Percent Effect (%)
Dear colleague, please return just the value in %, with no unit written.

Task: Recorded Percent Effect for O=C(CCOCc1ccccc1)N1CCCC1c1noc(C2CC2)n1 (centres undefined) , please?
Output: -10.4

Task: Reported Percent Effect, molecule CCOCC1CN(Cc2cccc(C#N)c2)Cc2nccn2C1 (centres undefined) : ____
Output: -2

Task: Requested field: Percent Effect. Item: CN1CC(=O)N(c2cccc(F)c2)CC12CCNC2 (centres undefined)
Output: -4.78

Task: What value of Percent Effect has been recorded for this entry: Cc1nnc(C2Cc3ccccc3CN2Cc2ncc(C(C)(C)C)o2)o1 (centres undefined)
Output: -1.05

Task: Which Percent Effect value belongs to `CS(=O)(=O)N1CC[C@]2(C[C@@H](OCC3CCC3)CO2)C1` ?
Output: 1.24

Task: Tell me the measured Percent Effect of CC1CN(CC(=O)Nc2cccnc2)CCN1c1nccs1 (centres undefined) , please.
Output: 3.14

Task: Which Percent Effect value belongs to CC(=O)N(Cc1noc(C)n1)C1CCN(Cc2ccncc2Cl)C1 (centres undefined) ?
Output: 2.8

Task: Request the reported Percent Effect associated with CC(N(C)Cc1nc2c(cnn2C)c(=O)[nH]1)C(C)(C)C (centres undefined)
Output: 2.03

Task: Please report the recorded Percent Effect for Cc1cc(CN2CCN(CC(O)C(C)(C)C)CC2)no1 (centres undefined) .
Output: 1.52

Task: Look up Percent Effect: NC(=O)COc1cccc(C(=O)N2CCCC(n3cccn3)C2)c1 (centres undefined)
Output: 1.29

Task: Dear colleague, I am looking for the recorded Percent Effect of the following molecule: `Cc1cccnc1NC(=O)CC1(Cn2cnnn2)CCCCC1`
Output: 1.18

Task: Quick check: Percent Effect of CN(c1ccncn1)C1CC2(CCN(C(=O)c3cccs3)C2)C1 (centres undefined) ?
Output: -2.09

Task: State the recorded Percent Effect for this entry: `Cc1ccc(NC(=O)Cn2cc(I)cn2)cc1`
Output: -1.32

Task: Would you kindly share the measured Percent Effect for `O=C(c1ccc2c(c1)COC2)N1CCC(Nc2cccnn2)CC1` ?
Output: -3.56

Task: Return reported Percent Effect; argument: CCc1ccc(CN2CCCC(CO)(CCOC)C2)cc1 (centres undefined)
Output: -6.7

Task: Given `CCc1c(C(=O)N2CCN(CC(N)=O)CC2)cnn1C(C)(C)C` , state its recorded Percent Effect.
Output: 3.6

Task: Reported Percent Effect for CNC(=O)c1ccc(CN2CCC(N(C)Cc3noc(C)n3)C2)cc1 (centres undefined) : what is it?
Output: 4.42

Task: Recorded Percent Effect of `CSc1ccsc1C(=O)N1CCN(CC(C)(C)O)CC1` , please.
Output: -4.95

Task: Can you look up the measured Percent Effect of Cc1cc(CN(C)C(=O)NC(C)c2nncn2C)no1 (centres undefined) for me?
Output: 35.8

Task: Value lookup for Percent Effect; key = `O=C(C1CCOCC1)N1CCc2ncnc(-c3ccc(F)cc3)c2CC1`
Output: -2.33

Task: Given the molecule O=C(NC1CC1)c1cc(NC(=O)N2CCCC(O)C2)ccc1Cl (centres undefined) , what is its reported Percent Effect?
Output: 1.6

Task: Would you mind telling me what Percent Effect value was observed for `O=C(c1ccc[nH]1)N1CCc2c(COCC3CC3)cncc2C1` ?
Output: 0.955

Task: Recorded Percent Effect of `Cc1[nH]ccc1C(=O)N1CCC(c2nnc(Cn3ccnc3)n2C)CC1` , please.
Output: -4.79

Task: Requested field: Percent Effect. Item: `CNC(=O)[C@H]1C[C@H]2OCC[C@H]2N(Cc2ccc(C)o2)C1`
Output: -4.52
